# Test system: SK-OV-3 ovarian
# method_notes: NCI tumour cell line growth inhibition, 48 h
Collected TGI values appear next to each entry.

Here's what some known entries look like.
compound	value_reported
COCCCNC(=O)C1C(=O)C(=O)N(CCCOC)C1=O (stereo not drawn)	> 100 µM
Cc1cc2cc3c(cc2c(-c2ccc([N+](=O)[O-])cc2)n1)OCO3	71.2 µM
O=P1(O)c2ccccc2CCc2ccccc21	> 100 µM

Entry O=C(Nc1ccncc1)C(=O)c1cn(S(=O)(=O)c2cccc(F)c2)c2ccccc12 , TGI reported as 76.5 µM

Entry [Cl-].[Rh+3].c1cnc2c(c1)ccc1cccnc12.c1cnc2c(c1)ccc1cccnc12.c1cnc2c(c1)ccc1cccnc12 , TGI reported as > 100 µM

Entry Cc1c(C)c(C)n(C2OC(CO)C(O)C(O)C2O)c(=S)c1C#N (stereo not drawn) , TGI reported as > 100 µM

Entry COc1cc(/C=C2/SC(c3ccccc3)N(c3ccccc3Cl)C2=O)cc(OC)c1OC (stereo not drawn) , TGI reported as 63.4 µM

Entry c1ccc(-c2cn3c(nc4ccccc43)c(-c3ccccc3)n2)cc1 , TGI reported as 38.4 µM

Entry N#CC1C(=O)N(c2ccccc2)NC12OC(=O)c1ccncc12 (stereo not drawn) , TGI reported as > 20 µM

Entry NC(=O)NS(=O)(=O)c1ccc(N2N=C(C(F)(F)F)CC2c2cc(C(F)(F)F)cc(C(F)(F)F)c2)cc1 (stereo not drawn) , TGI reported as 21.3 µM

Entry O=C1c2ccccc2C(=O)c2c1cc(S(=O)(=O)O)c(O)c2O , TGI reported as > 100 µM

Entry CCCC(=O)OCC1OC(n2cnc3c(=S)nc[nH]c32)C(OC(=O)CCC)C1OC(=O)CCC (stereo not drawn) , TGI reported as 69.8 µM

Entry COc1nc(N=P(c2ccccc2)(c2ccccc2)c2ccccc2)cc(=O)[nH]1 , TGI reported as > 100 µM

Entry Cc1cc(N(CCC#N)CCC#N)ccc1/C=C1\N=C(c2cc([N+](=O)[O-])ccc2Cl)N(c2cccc(Cl)c2)C1=O , TGI reported as > 100 µM

Entry O=c1cc(N2CCNCC2)nc2ccccn12 , TGI reported as > 100 µM

Entry CC1(C)OC2=C(CC1Br)C(=O)C(=O)c1ccccc12 (stereo not drawn) , TGI reported as 3.47 µM

Entry N#C/C(=C\c1ccc2ccccc2c1)c1ccccc1 , TGI reported as 70.7 µM

Entry CN(C)/N=C(/CC(O)(C(F)(F)F)C(F)(F)F)c1ccc([N+](=O)[O-])cc1 , TGI reported as > 100 µM

Entry O=C(O)CCC(=O)Nc1ccc2ccccc2c1 , TGI reported as > 100 µM

###

# System: SR leukemia
# method_notes: NCI tumour cell line growth inhibition, 48 h
parameter: TGI

Here's what some known entries look like.
smiles	TGI
COc1ccc(-c2onc(N)c2-c2cc(OC)c3c(c2)OCO3)cc1	> 100 µM
CN(C)c1ccc(/C=C2/NC(=S)NC2=O)cc1	> 100 µM

Shifting focus to the compound that follows.
Entry O=C(O)CCSC(=O)Nc1ccc([N+](=O)[O-])cc1 , TGI reported as > 100 µM

###

# Test system: CAKI-1 renal
# method_notes: NCI tumour cell line growth inhibition, 48 h
parameter: TGI

compound	TGI
C[N+](C)(C)CCCSc1nc2ccccc2[nH]1	> 100 µM
CCOCc1c(C)cc(C)c(C2C(C(=O)c3ccccc3)N3c4ccccc4C=CC3C2(C#N)C(=O)OCC)c1C (stereo not drawn)	> 100 µM

Shifting focus to the compound that follows.
Param item: CCOC(=O)NC(=O)c1cn(CCNCCO)c(=O)[nH]c1=O ; param system: CAKI-1 renal; output TGI: > 100 µM
